PBM binding z-score values for the sequences below.
System: PPARg:RXRa (NR concentration 180 nM, RXRa partner concentration 90 nM)
ASSAY_DETAILS: PBM binding z-score (relative to random genomic background probes); higher = stronger binding; sequences stand for … in GC…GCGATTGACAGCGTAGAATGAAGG
Output: the number by itself.

TAGCCTAGCTCATGGGCCAGTATACCACGCGAAC
0.282

# PBM binding z-score measured on PPARg:RXRa (NR concentration 180 nM, RXRa partner concentration 90 nM) for item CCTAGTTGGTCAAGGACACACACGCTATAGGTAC = 1.12

PBM binding z-score for PPARg:RXRa (NR concentration 180 nM, RXRa partner concentration 90 nM) with input TCATATAGGGAAAGGTGAAAGTCGAACGATATGA equals 2.13

PBM binding z-score for PPARg:RXRa (NR concentration 180 nM, RXRa partner concentration 90 nM) with input CAAACTAGGTCAAGGTCAAAGTCGGTTTGTGCCA equals 9.81

Tested system PPARg:RXRa (NR concentration 180 nM, RXRa partner concentration 90 nM); PBM binding z-score recorded for GTACCAAGGTGAATAGGTCGTTGCTGAGTAGGCG was 1.21

PPARg:RXRa (NR concentration 180 nM, RXRa partner concentration 90 nM) PBM binding z-score of CAAGACAGGTGAAAGGTAACTCAGTCTGGTACGC is 5.4

---

Tested on: RARb:RXRa (NR concentration 270 nM, RXRa partner concentration 90 nM)
ASSAY_DETAILS: PBM binding z-score (relative to random genomic background probes); higher = stronger binding; sequences stand for … in GC…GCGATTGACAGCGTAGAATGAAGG
Threshold check on PBM binding z-score: at or above 0.7 gives yes, strictly below gives no.

Below, 8 sequences whose answers are already recorded.
GTACCGAGGTGAATAGGTCGTTGATGAGTAGGCG
yes
CCGAGTCGGTTATGGGGCATTCAGGCAACGGTGA
no
CCTACTGGGGCAAAAAGGTCATTGATGCCGATAA
yes
AACGAAAGGTCGAGGTGAGTATAGAGAAAGGGAA
yes
GGAACGAGGGTAAAGTTGATAGCATCTGTCGACG
yes
AGAACGAGGGAACGCTGAGTTGATAGCAGAGTAG
no
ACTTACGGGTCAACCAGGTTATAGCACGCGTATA
yes
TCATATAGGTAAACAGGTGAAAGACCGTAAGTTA
yes

Task: Exam item: decide whether the reported PBM binding z-score for TTTTGTAGATCAACAGGAGGTTAAGAAAGATCGA is at least 0.7.
Output: yes

Task: Identify whether the reported PBM binding z-score of the following sequence is 0.7 or greater: TCGAGTAGGTGACCAATGGGGCATTCAGCTTTCT
Output: no

Task: Quick check, PBM binding z-score >= 0.7? AGAATGAGGTTACCAAAGACCAGGGAAACGCTTG
Output: yes

Task: Determine whether this sequence has PBM binding z-score no lower than 0.7: CATACAGGGTCAGCTAGGCCAAAGTAGGGACGGC
Output: yes

---

System: LXRb:RXRa (NR concentration 270 nM, RXRa partner concentration 90 nM)
ASSAY_DETAILS: PBM binding z-score (relative to random genomic background probes); higher = stronger binding; sequences stand for … in GC…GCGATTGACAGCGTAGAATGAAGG
Quick reference for PBM binding z-score among some sequences
A bare number is all that is needed in reply.

Illustrative cases are given below, each with its answer.
CGTAGTTGGTCAGGAGGTCACACACCGGATATGA
3.36
CTCGAAAGGTCGGTTGAGGTGAGTACACGGATAA
1.5
ACTAGCAGGCCAAGTTTGCGTCACTCAAACAAAG
-0.386
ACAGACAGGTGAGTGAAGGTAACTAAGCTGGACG
-0.48
ATATGTATGTTAAGGGTCATTCAGGTTGGTTCGC
4.46
CCAGACAGGTGAAAGGTATCTCAGTCTGGTACGC
0.122
CCGACTGGGGAAAGGTTACCATAACGCACAGCCA
1.75
TCAGACAGGTGAAGGTAACTCAAGTACGCAGTCG
1.47
AGGCAAAGTTCACTAGGTAACGTAAGATTCAGCT
3.12
CCTATTAGTTGACCATAAGGACAACCGAAGCTCG
0.473

Reported PBM binding z-score of CCTTACGGGTCAAGGTTCTAGCACGGGTGGTACG : 2.64

Record TCGAGTAGGTTAGTCGGGGCATTGAGCCAACATA . Reported PBM binding z-score: 0.048

Memo: ACTCGGAGGACAAAGGTCAGATCTACGCCAGTGA , reported PBM binding z-score: 3.46
